This collection of values is drawn from PubChem BioAssay (NCI).

# System: SR leukemia
# assay_protocol: NCI tumour cell line growth inhibition, 48 h
Listed here: items and their measured TGI.
Reply with just the number (in µM).

{"columns": ["structure_smiles", "study_system", "measured_parameter", "assay_value"],
 "data": [
  ["O=S1(=O)NNC(=NCc2ccc(Cl)c(Cl)c2)c2ccccc21", "SR leukemia", "TGI", 47.1]
]}

Proceed to the following item.
Data request: Identify measured TGI corresponding to CCC1=C(C)/C(=C/c2[nH]c(C(Br)Br)c(CC)c2C)N=C1C(Br)Br
Data returned: 32.6

====

Listed here: items and their measured TGI.
# Tested on: SNB-75 CNS
# assay_protocol: NCI tumour cell line growth inhibition, 48 h
Reply with just the number (in µM).

{"columns": ["molecule", "TGI (µM)"],
 "data": [
  ["CC1(C)C(c2ccccc2)C12CCC1(C2=O)C(c2ccccc2)C1(C)C (stereo unspecified)", 90.1],
  ["Oc1[nH]c2ccccc2c1N=NC(=S)N1CCCCC1", 6.71],
  ["O=S(=O)(Nc1cc(Br)c(O)c2ccccc12)c1ccc(F)cc1", 17.1]
]}

Data request: Identify measured TGI corresponding to Cc1nc(Cl)c2sc(=S)n(-c3ccc(F)cc3)c2n1
Data returned: 18.1

Data request: Identify measured TGI corresponding to Cc1cc(Cc2cc(C)c(O)c(C)c2)cc(C)c1O
Data returned: 25.9

Data request: Identify measured TGI corresponding to COc1ccc(-c2nn(-c3ccc(NC(=O)c4ccc(Cl)c(C(F)(F)F)c4)cc3)cc2-c2ccncc2)cc1Cl
Data returned: 6.42

Data request: Identify measured TGI corresponding to CCCCCCCC(=O)OC[C@@H](C[As](=O)(O)O)OC(=O)CCCCCCC
Data returned: 29.5
